test system: UniProt P08684
Sequence (P08684 whole entry): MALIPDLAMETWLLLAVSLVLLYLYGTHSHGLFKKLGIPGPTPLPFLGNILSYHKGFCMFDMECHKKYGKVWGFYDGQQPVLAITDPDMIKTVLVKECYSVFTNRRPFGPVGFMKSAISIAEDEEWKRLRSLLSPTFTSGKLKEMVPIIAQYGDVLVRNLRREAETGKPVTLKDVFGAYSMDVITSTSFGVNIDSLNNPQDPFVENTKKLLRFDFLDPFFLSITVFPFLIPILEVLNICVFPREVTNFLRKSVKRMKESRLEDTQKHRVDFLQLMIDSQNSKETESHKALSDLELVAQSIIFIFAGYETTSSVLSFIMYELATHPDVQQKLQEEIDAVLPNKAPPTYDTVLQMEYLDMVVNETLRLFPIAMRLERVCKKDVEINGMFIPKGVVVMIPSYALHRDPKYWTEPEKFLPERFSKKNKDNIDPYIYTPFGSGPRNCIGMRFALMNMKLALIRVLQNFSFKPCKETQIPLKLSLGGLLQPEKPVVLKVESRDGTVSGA
experiment summary: Stopped-flow kinetics of ligand binding
Design: Codon-optimized full-length and Δ3–22 human CYP3A4 were produced as reported previously [45] and used for assays and crystallization, respectively; made in house
condition info: value in brackets of k fast column
Method: Kinetics of Ligand Binding and Heme Reduction—Kinetics of ligand binding to CYP3A4 and its reduction with sodium dithionite were measured at 426 and 443 nm, respectively, in a SX.18MV stopped flow apparatus (Applied Photophysics, UK), as described earlier.
endpoint name: percentage of the fast phase (%)

molecule="CC(C)(C)OC(=O)NC(CSCC(Nc1ccccc1)C(=O)NCCCc1cccnc1)Cc1ccccc1 (stereo not shown)" test_system="UniProt P08684" endpoint_name="percentage of the fast phase" assay_result=30
molecule=CC(C)(C)OC(=O)N[C@@H](CS[C@H](Cc1ccccc1)C(=O)NCCCc1cccnc1)Cc1cccc2ccccc12 test_system="UniProt P08684" endpoint_name="percentage of the fast phase" assay_result=24
molecule="CC(C)(C)OC(=O)NC(CSC(Cc1ccccc1)C(=O)NCCCc1cccnc1)Cc1cccc2ccccc12 (stereo not shown)" test_system="UniProt P08684" endpoint_name="percentage of the fast phase" assay_result=32
molecule=CC(C)(C)OC(=O)N[C@@H](CS[C@H](Cc1ccccc1)C(=O)NCCCc1cccnc1)Cc1ccccc1 test_system="UniProt P08684" endpoint_name="percentage of the fast phase" assay_result=38

Attribution: paper PMC7830545
